experimentalTarget: hTLR8 (Homo sapiens, UniProt Q9NR97)
Construct: expressed in transfected cells; host or cells: HEK-Blue hTLR cells
Sequence (Q9NR97 27-1041): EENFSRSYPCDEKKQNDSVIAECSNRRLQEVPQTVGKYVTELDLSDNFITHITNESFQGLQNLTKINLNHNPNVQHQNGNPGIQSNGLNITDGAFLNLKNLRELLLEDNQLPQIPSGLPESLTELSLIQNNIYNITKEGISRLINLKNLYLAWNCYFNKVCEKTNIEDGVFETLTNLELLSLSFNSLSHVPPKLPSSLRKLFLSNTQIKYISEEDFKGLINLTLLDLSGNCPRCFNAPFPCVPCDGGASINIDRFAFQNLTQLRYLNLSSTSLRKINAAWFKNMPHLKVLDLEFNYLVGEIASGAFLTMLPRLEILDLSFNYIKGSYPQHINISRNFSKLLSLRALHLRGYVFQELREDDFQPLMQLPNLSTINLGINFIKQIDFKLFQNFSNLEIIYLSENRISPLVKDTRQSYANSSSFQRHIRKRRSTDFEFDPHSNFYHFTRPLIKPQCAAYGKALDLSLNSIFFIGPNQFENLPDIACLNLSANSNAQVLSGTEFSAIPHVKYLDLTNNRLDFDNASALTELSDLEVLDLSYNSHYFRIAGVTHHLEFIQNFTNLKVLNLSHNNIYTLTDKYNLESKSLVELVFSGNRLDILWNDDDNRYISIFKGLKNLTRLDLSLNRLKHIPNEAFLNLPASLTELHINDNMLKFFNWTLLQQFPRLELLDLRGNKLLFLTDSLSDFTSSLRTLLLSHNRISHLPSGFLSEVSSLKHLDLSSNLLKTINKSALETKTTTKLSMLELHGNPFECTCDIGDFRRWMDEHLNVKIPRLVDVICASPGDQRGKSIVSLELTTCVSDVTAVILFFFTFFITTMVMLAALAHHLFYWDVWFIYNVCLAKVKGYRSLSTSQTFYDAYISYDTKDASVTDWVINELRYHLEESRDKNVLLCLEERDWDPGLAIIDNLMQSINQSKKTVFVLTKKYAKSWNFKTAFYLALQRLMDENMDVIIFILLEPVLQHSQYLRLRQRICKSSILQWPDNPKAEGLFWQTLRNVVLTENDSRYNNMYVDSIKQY
protocolSummary: agonistic activity on hTLR8, HEK-Blue hTLR cells, SEAP reporter (QUANTI-Blue)
Type: cell-based
conditionNotes: HEK-Blue hTLR cells, SEAP reporter, OD650, cultured 1 day; read-out: TLR 8 EC50
Description: Experiments on the agonistic activity of TLR7 and TLR8 by the compounds in vitro The compound was diluted with 1:3 series with DMSO for 9 concentration points, duplicated wells, and added to 96-well plate with Echo. […] 20 uL cell culture supernatant was taken, according to the QUANTI-Blue instructions, the reporter gene SEAP in the supernatant was detected, and the OD650 signal value was read with a microplate reader to calculate the agonist activity of the compound on the hTLR7 and hTLR8. […]
Decision: EC50 beneath 20 nM gives y; EC50 meeting or exceeding 20 nM gives n.

Look over these answered cases.
CCOCc1nc2c(N)nc3ccccc3c2n1C[C@@H](C)O[P@](=O)(N[C@@H](C)C(=O)OCc1ccccc1)Oc1ccccc1 (single isomer, unassigned) [Example 16B]; y
CCOCc1nc2c(N)nc3ccccc3c2n1C[C@@H](C)O[P@](=O)(N[C@H](C)C(=O)OC(C)C)Oc1ccccc1 (single isomer, unassigned) [Example 13B]; n
CCOCc1nc2c(N)nc3ccccc3c2n1C[C@@H](C)O[P@](=O)(N[C@@H](C)C(=O)OC(C)C)Oc1ccc2ccccc2c1 (single isomer, unassigned) [Example 6B]; n
CCOCc1nc2c(N)nc3ccccc3c2n1C[C@@H](C)OP(=O)(N[C@H](C(=O)OC(C)(C)C)C(C)C)Oc1ccc(Cl)cc1 (some centres unmarked) [Example 22]; n
CCOCc1nc2c(N)nc3ccccc3c2n1C[C@@H](C)O[P@](=O)(N[C@@H](C)C(=O)OC(C)(C)C)Oc1ccc(OC)cc1 (single isomer, unassigned) [Example 18B]; n
CCOCc1nc2c(N)nc3ccccc3c2n1C[C@@H](C)O[P@](=O)(N[C@@H](C)C(F)(F)F)Oc1ccc(Cl)cc1 [Example 24B]; n

Prompt: Is EC50 of CCOCc1nc2c(N)nc3ccccc3c2n1C[C@@H](C)O[P@@](=O)(N[C@@H](C)C(=O)OC(C)C)Oc1cccc(Cl)c1 (single isomer, unassigned) [Example 11A] strictly below 20 nM?
Response: y

Prompt: Is EC50 of CCOCc1nc2c(N)nc3ccccc3c2n1C[C@@H](C)O[P@@](=O)(N[C@@H](C)C(=O)OC)Oc1ccccc1 (single isomer, unassigned) [Example 15A] strictly below 20 nM?
Response: n

Prompt: Is EC50 of CCOCc1nc2c(N)nc3ccccc3c2n1C[C@@H](C)O[P@](=O)(N[C@@H](C)C(=O)OC(C)(C)C)Oc1ccc(Cl)cc1 (single isomer, unassigned) [Example 19B] strictly below 20 nM?
Response: n

Prompt: Is EC50 of CCOCc1nc2c(N)nc3ccccc3c2n1C[C@@H](C)O[P@@](=O)(N[C@@H](C)C(=O)OC(C)(C)C)Oc1ccccc1 (single isomer, unassigned) [Example 14A] strictly below 20 nM?
Response: n

Prompt: Is EC50 of CCOCc1nc2c(N)nc3ccccc3c2n1C[C@@H](C)O[P@@](=O)(N[C@@H](C)C(=O)OC(C)C)Oc1ccc(C)cc1 (single isomer, unassigned) [Example 9A] strictly below 20 nM?
Response: y
